tested on: SK-OV-3; experiment: NCI tumour cell line growth inhibition, 48 h
The source made the active and inactive calls. No stated cut-off is given here; in the data, active = GI50 up to about 1.1 µM and inactive = higher.
observedProperty: GI50

Take a look at these entries with their results.
molecule	GI50
CN1CC=C(C#CC(C)(C)O)CC1	> 37.5 µM (inactive)
COC(=O)C1OC(O[C@H]2CC[C@]3(C)[C@H]4CC=C5[C@@H]6CC(C)(C)CC[C@]6(C(=O)OC6OCC(O)C(O)C6OC6OC(C)C(OC7OCC(OC8OCC(O)C(O)C8O)C(O)C7O)C(O)C6O)[C@H](O)C[C@@]5(C)[C@]4(C)CC[C@H]3C2(C)C)C(O)C(O)C1O (stereo not given in full)	14.9 µM (inactive)
CCOC(=O)/C(C#N)=C/N(CC)/N=C/c1ccccc1	> 100 µM (inactive)
Cc1c2ccccc2c(C2C3C(=O)N(c4cccc5ccccc45)C(=O)C3ON2Cc2ccc(CC(N)=O)cc2)c2ccccc12 (stereo not given)	30.8 µM (inactive)
CCCCCCCCCCCCCCCc1nnc(SCC(=O)O)[nH]1	45.4 µM (inactive)
O=[N+]([O-])c1ccc(Cl)cc1N/N=C/c1ccnc2ccccc12	> 100 µM (inactive)
COc1cc(COC(=O)N(CC(=O)O)c2ccccc2)c([N+](=O)[O-])cc1OC	> 100 µM (inactive)
O=C(N/N=C/c1cccc(O)c1O)N/N=C/c1cccc(O)c1O	> 100 µM (inactive)

So, "N#C/N=C(\NCCc1c[nH]c2ccccc12)NCc1ccccc1" ? Its GI50 was > 100 µM (inactive)

So, [N-]=[N+]=NCC1OC(n2cnc3c(N)ncnc32)C2OC12 (stereo not given) ? Its GI50 was > 100 µM (inactive)

----------
test system: RPMI-8226; experiment: NCI tumour cell line growth inhibition, 48 h
Activity calls are given as the source filed them. Rule as the data show it: active = GI50 up to about 1.1 µM and inactive = higher.
observedProperty: GI50

Take a look at these entries with their results.
compound	assayedTarget	GI50
Cc1cc(=O)oc2c(C)c(O)ccc12	RPMI-8226	62.1 µM (inactive)
CN(C)CCNC(=O)c1cnn(C)c1[N+](=O)[O-]	RPMI-8226	> 100 µM (inactive)
O=[N+]([O-])/C(C(Cl)=C(Cl)Cl)=C(\Nc1cccc2ccccc12)Sc1ccccc1	RPMI-8226	6.89 µM (inactive)

So, "CCOC(=O)/C(C#N)=C/N(CC)/N=C/c1ccccc1" ? Its GI50 was > 100 µM (inactive)

So, "Cn1c(=O)oc2nc(-c3ccccc3)cc(C(F)(F)F)c21" ? Its GI50 was 30.5 µM (inactive)

So, "Nc1c(C(=O)O)c2ccc([N+](=O)[O-])cc2c(=O)n1-c1nc2ccccc2s1" ? Its GI50 was > 100 µM (inactive)

----------
The molecules listed here are annotated with their GI50.
system: K562; assay: NCI tumour cell line growth inhibition, 48 h
The source made the active and inactive calls. Rule as the data show it: active = GI50 up to about 1.1 µM and inactive = higher.

Take a look at these entries with their results.
molecule	observedProperty	reading
Nc1nc2cc(CNc3ccc(C(=O)NC(CCC(=O)O)C(=O)O)cc3)ccc2nc1-c1ccccc1 (centres undefined)	GI50	> 10 µM (inactive)
O=C(NCCN1CCCCC1)c1ccc(I)cc1	GI50	> 100 µM (inactive)
CC(C)(C)C1CCC(=O)C(C(O)CC2CC(=O)N(c3ccccc3)C(=O)C2)C1 (centres undefined)	GI50	> 100 µM (inactive)
COc1cc(S(=O)(=O)Nc2ccc(-c3csc(N4C(=O)C(C)SC4c4cccs4)n3)cc2)ccc1Cl (centres undefined)	GI50	28.4 µM (inactive)
COc1cccc(CCNc2c(C#N)c3nc4ccccc4n3c3ccccc23)c1	GI50	0.141 µM (active)
CO[C@@H]1C[C@H]2[C@@H]3CC[C@H]([C@@H](C)CO)[C@@]3(C)CC[C@@H]2[C@@]2(C)CC[C@H]3C[C@]312	GI50	22.8 µM (inactive)
COc1ccc(S(=O)(=O)N(CC(=O)O)c2ccccc2)cc1	GI50	> 100 µM (inactive)
Cc1cc2nc3c(C(OC4OC(CO)C(O)C(O)C4O)C(O)CO)nn(-c4ccccc4)c3nc2cc1C (centres undefined)	GI50	> 100 µM (inactive)

Please turn your attention to the following entry.
So, NCCCC(N)C(=O)O (centres undefined) ? Its GI50 was > 100 µM (inactive)

----------
system: UO-31; experiment: NCI tumour cell line growth inhibition, 48 h
Calls of active or inactive are those of the source. Rule as the data show it: active = GI50 up to about 1.1 µM and inactive = higher.
The compounds listed here are annotated with their GI50.

compound	reading
COc1ccc2c(c1OC)C[C@@H]1c3c(cc4c(c3-2)OCO4)CCN1C	10.8 µM (inactive)
CCOC(=O)C1=CC(C)(C(=O)OCC)Nc2c(nc(SC)[nH]c2=O)N1 (stereo not given)	> 10 µM (inactive)
COC(=O)Nc1nc2cc(NS(=O)(=O)c3cccs3)ccc2[nH]1	30.1 µM (inactive)
O=[N+]([O-])c1cccc(/N=N/c2c(O)ccc3ccccc23)c1	> 100 µM (inactive)

So, "O=C(N/N=C/c1cccc(O)c1O)N/N=C/c1cccc(O)c1O" ? Its GI50 was 6.52 µM (inactive)

So, "Cc1cc2nc(N)n[n+]([O-])c2cc1C" ? Its GI50 was > 100 µM (inactive)

So, "C(=C\c1ccc(-c2cn3cc(/C=C/C=N/NC4=NCCN4)ccc3n2)cc1)/C=N/NC1=NCCN1" ? Its GI50 was 3.09 µM (inactive)

So, CC(C)CCC[C@@H](C)C1CCC2[C@@H]3CC=C4C[C@@H](C(=O)NCCN(C)C)CC[C@]4(C)C3CC[C@@]21C (stereo not given in full) ? Its GI50 was 23.1 µM (inactive)

So, "O=c1[nH]nc(-c2ccccc2)n1-n1cccc1" ? Its GI50 was > 100 µM (inactive)

So, "CC(C)C(=O)/C=C/c1c(Cl)cccc1Cl" ? Its GI50 was 4.3 µM (inactive)

----------
test system: SNB-19; experiment: NCI tumour cell line growth inhibition, 48 h
Active and inactive are the calls of the source. Cut-off read from the data, not from the text of the source: active = GI50 up to about 1.1 µM and inactive = higher.
observedProperty: GI50

So, "COc1cc(-c2cc(OC)c(OC)c3ccc(Br)cc23)c2cc(Br)ccc2c1OC" ? Its GI50 was 39.5 µM (inactive)

So, "COC(=O)c1nn2ccc3ccccc3c2c1C(=O)OC" ? Its GI50 was > 100 µM (inactive)

So, "CCOC(=O)c1c(-c2ccccc2)nc2ccccc2c1O" ? Its GI50 was > 100 µM (inactive)

So, "NC(=S)N/N=C1\C(=O)C=C(Nc2ccc(Cl)cc2Cl)c2ccccc21" ? Its GI50 was 25.5 µM (inactive)

So, "O=c1cc(O)cc2n1CCC2" ? Its GI50 was > 100 µM (inactive)

So, "O=c1[nH]nc(Cc2ccccc2)n1/N=C/c1ccc([N+](=O)[O-])o1" ? Its GI50 was 4.83 µM (inactive)

So, CC(=O)OCC1OC(n2c(-c3ccccc3)c(C(C)=O)c(-c3cccc4ccccc34)c(C#N)c2=S)C(OC(C)=O)C(OC(C)=O)C1OC(C)=O (stereo unspecified) ? Its GI50 was > 100 µM (inactive)

So, Cc1cc2nc3c(C(OC4OC(CO)C(O)C(O)C4O)C(O)CO)nn(-c4ccccc4)c3nc2cc1C (stereo unspecified) ? Its GI50 was > 100 µM (inactive)

So, CN1CCC(C(O)(c2ccccc2)c2ccc(Br)cc2)CC1 (stereo unspecified) ? Its GI50 was 45.2 µM (inactive)

So, "Cn1c(C(C)(C)OC(=O)Oc2ccccc2)cnc1[N+](=O)[O-]" ? Its GI50 was > 100 µM (inactive)

So, "Cn1c(=O)oc2nc(-c3ccccc3)cc(C(F)(F)F)c21" ? Its GI50 was > 100 µM (inactive)

----------
tested on: A549; assay: NCI tumour cell line growth inhibition, 48 h
Activity calls are given as the source filed them. Rule as the data show it: active = GI50 up to about 1.1 µM and inactive = higher.
Hi! Could you answer with just one of these? TRUE = active, FALSE = inactive

molecule	assignedClass
CSc1nc2c(c(N3CCOCC3)n1)C(O)n1c(nc3ccccc31)S2 (centres undefined)	FALSE
Cc1cc(NS(=O)(=O)c2ccc(NC(NC(=O)OC(C)C)(C(F)(F)F)C(F)(F)F)cc2)nc(C)n1	FALSE
O=c1c(O)cccn1C1OC(CO)C(O)C1O (centres undefined)	FALSE
CCOc1ccc(/C=C(\Cl)c2ccc(OC)cc2)cc1	FALSE
CCOC(=O)CSc1nnc2cc(CN3CCCC3)c(-c3ccc(Cl)cc3)nn12	FALSE
CCOC(=O)c1ccc(-c2ccc(Cl)cc2)[nH]1	FALSE

Exercise: Name the outcome recorded for CN(C)c1ncnc2c1ncn2C1C=CC(COS(N)(=O)=O)C1 (centres undefined) in the assay.
Solution: FALSE

Exercise: Name the outcome recorded for CN1CCC(C(O)(c2ccccc2)c2ccc(Br)cc2)CC1 (centres undefined) in the assay.
Solution: FALSE

----------
The compounds listed here are annotated with their GI50.
system: SNB-19; assay: NCI tumour cell line growth inhibition, 48 h
Activity calls are given as the source filed them. No stated cut-off is given here; in the data, active = GI50 up to about 1.1 µM and inactive = higher.

Take a look at these entries with their results.
compound	reading
O=[N+]([O-])c1cccc(/N=N/c2c(O)ccc3ccccc23)c1	25.4 µM (inactive)
NC(=O)CCC(NCc1c2ccccc2[n+]([O-])c2ccccc12)C(=O)O (stereo not drawn)	> 100 µM (inactive)

For "COc1cccc2c(Nc3ccc(S(=O)(=O)Nc4ncccn4)cc3)c3ccc([N+](=O)[O-])cc3nc12" on SNB-19, measured GI50 was > 100 µM (inactive)

For "NC(=S)NNC(=O)/C(=C/c1ccc(/C=C(\NC(=O)c2ccccc2)C(=O)NNC(N)=S)cc1)NC(=O)c1ccccc1" on SNB-19, measured GI50 was > 100 µM (inactive)

For "CCOC(=O)c1nc2cc(C(F)(F)F)ccc2nc1Oc1ccc(C(=O)OC)cc1" on SNB-19, measured GI50 was > 100 µM (inactive)

For CCN1C/C(=C\c2cc(OC)c(OC)c(OC)c2)C2=NN(c3ccccc3)C(c3cc(OC)c(OC)c(OC)c3)C2C1 (stereo not drawn) on SNB-19, measured GI50 was 1.97 µM (inactive)

For "O=C(O)CN1CCN(CC(=O)N2CCN(C(=O)OCc3ccccc3)CC2)CCN(CC(=O)O)CCN(CC(=O)N2CCN(C(=O)OCc3ccccc3)CC2)CC1" on SNB-19, measured GI50 was > 100 µM (inactive)

For O=C(CC(Cc1ccccc1)c1ccc(Oc2ccccc2)cc1)Nc1cccc(Cl)c1 (stereo not drawn) on SNB-19, measured GI50 was 4.5 µM (inactive)

Where do these numbers come from? They come from ChEMBL document CHEMBL1201862.
